ASSAY INFO: Brain and plasma concentration after intraperitoneal administration in mice
Type: in vivo, C57BL/6J mice
CONDITION DESCRIPTION: mouse, brain/plasma; C57BL/6J mice, 10 mg/kg ip, 1 h; read-out: brain-to-plasma concn ratio
MEASURED QUANTITY: Kp at 1 h
Answers are plain numbers.

Q) Please give the measured Kp at 1 h for this compound: COC(=O)N1CCC[C@H](NS(C)(=O)=O)[C@@H]1CO[C@H]1CC[C@@H](c2ccccc2)CC1
A) 0.2

---

ASSAY INFO: Brain and plasma concentration after intraperitoneal administration in mice
Format: in vivo, C57BL/6J mice
CONDITION DESCRIPTION: mouse, brain; C57BL/6J mice, 10 mg/kg ip, 0.5 h, n = 3; read-out: brain concn
MEASURED QUANTITY: concentration at 0.5 h (ng/g)
Answers are plain numbers, in ng/g.

Q) Please give the measured concentration at 0.5 h for this molecule: COC(=O)N1CCC[C@H](NS(C)(=O)=O)[C@@H]1CO[C@H]1CC[C@@H](c2ccccc2)CC1 [compound 16]
A) 183
